Catalogue of pIC50 values
- TESTED_ON: human NaV 1.7 (Homo sapiens)
- MEASUREMENT_DESCRIPTION: E-VIPR optical membrane potential assay with electrical stimulation
- COND: sodium channel inhibition; read-out: Binned Activity Data (IC50)
pIC50: −log10 of the molar value.

Reference set (3 entries):
{"SMILES_TEXT": "Cc1cc(C(=O)N2CCC3(CC2)Oc2cc(F)ccc2-n2cccc23)ccc1C(C)(C)O", "MEASURE": "pIC50", "ENDPOINT_VALUE": "≥ 5.70"}
{"SMILES_TEXT": "COc1ccc(C(=O)N2CCC3(CC2)Oc2cc(Cl)ccc2-n2cccc23)cc1S(N)(=O)=O", "MEASURE": "pIC50", "ENDPOINT_VALUE": "< 5.30"}
{"SMILES_TEXT": "COCCOc1ccc(C(=O)N2CCC3(CC2)Oc2ccccc2-n2cccc23)cc1OC", "MEASURE": "pIC50", "ENDPOINT_VALUE": "≥ 5.70"}

Now look at this entry.
Missing value: pIC50, human NaV 1.7 (Homo sapiens), entry N#Cc1ccc2n1-c1ccccc1OC21CCN(C(=O)c2ccccc2OC(F)F)CC1 . Fill in?
≥ 5.70

---

- TESTED_ON: UniProt:Q15858
- MEASUREMENT_DESCRIPTION: E-VIPR optical membrane potential assay with electrical stimulation
- Type: cell-based
- COND: sodium channel inhibition; read-out: Binned Activity Data (IC50)
MEASURE: IC50

Missing value: IC50, UniProt:Q15858, entry Cc1cc(C(=O)N2CCC3(CC2)Oc2cc(F)ccc2-n2cccc23)ccc1OC(C)C . Fill in?
≤ 2000 nM

Missing value: IC50, UniProt:Q15858, entry CC(C)(CO)c1ccc(C(=O)N2CCC3(CC2)Oc2cc(Cl)ccc2-n2cccc23)cc1F . Fill in?
≤ 2000 nM

Missing value: IC50, UniProt:Q15858, entry Cn1ncc2c1-c1cc(Cl)ccc1OC21CCN(C(=O)c2ccccc2OC(F)(F)F)CC1 . Fill in?
≤ 2000 nM

Missing value: IC50, UniProt:Q15858, entry COc1cc(C(F)(F)F)ccc1C(=O)N1CCC2(CC1)Oc1cc(Cl)ccc1-n1cccc12 . Fill in?
≤ 2000 nM

Missing value: IC50, UniProt:Q15858, entry COC[C@H](C)Oc1ccc(C(=O)N2CCC3(CC2)Oc2cc(Cl)ccc2-n2cccc23)cc1OC . Fill in?
≤ 2000 nM

Missing value: IC50, UniProt:Q15858, entry COc1c(C(=O)N2CCC3(CC2)Oc2ccccc2-c2c3cnn2C)ccc(F)c1F . Fill in?
2000 to 5000 nM

Missing value: IC50, UniProt:Q15858, entry Cn1cc2c(n1)-c1ccccc1OC21CCN(C(=O)c2ccc(S(=O)(=O)NC(C)(C)C)cc2)CC1 . Fill in?
≤ 2000 nM

Missing value: IC50, UniProt:Q15858, entry CC(C)(C)[S@+]([O-])c1ccc(C(=O)N2CCC3(CC2)Oc2ccccc2-n2c(C(F)(F)F)ccc23)cc1 . Fill in?
2000 to 5000 nM

Missing value: IC50, UniProt:Q15858, entry COc1cc(C(=O)N2CCC3(CC2)Oc2ccccc2-n2cccc23)ccc1OC[C@@H](O)CO . Fill in?
≤ 2000 nM

Missing value: IC50, UniProt:Q15858, entry CC(C)Oc1ccc(C(=O)N2CCC3(CC2)Oc2ccccc2-c2c3cnn2C)cc1Cl . Fill in?
≤ 2000 nM

Missing value: IC50, UniProt:Q15858, entry CCc1ccc(C(=O)N2CCC3(CC2)Oc2ccccc2-c2c3cnn2C)cc1OC . Fill in?
≤ 2000 nM

Missing value: IC50, UniProt:Q15858, entry CCc1ccc(C(=O)N2CCC3(CC2)Oc2cc(CO)ccc2-n2cccc23)cc1OC . Fill in?
≤ 2000 nM

Missing value: IC50, UniProt:Q15858, entry Cc1cc(C(=O)N2CCC3(CC2)Oc2ccccc2-c2c3cnn2C)ccc1OC(F)(F)F . Fill in?
2000 to 5000 nM

Missing value: IC50, UniProt:Q15858, entry Cc1ccc(C(=O)N2CCC3(CC2)Oc2cc(Cl)ccc2-n2cccc23)cc1C . Fill in?
≤ 2000 nM

Missing value: IC50, UniProt:Q15858, entry CC(C)S(=O)(=O)c1ccc(C(=O)N2CCC3(CC2)Oc2cc(Cl)ccc2-n2c(C#N)ccc23)cc1 . Fill in?
2000 to 5000 nM

Missing value: IC50, UniProt:Q15858, entry C[S+]([O-])c1ccc(C(=O)N2CCC3(CC2)Oc2ccccc2-n2c(C#N)ccc23)cc1C(F)(F)F (stereo not shown) . Fill in?
≤ 2000 nM

---

Catalogue of IC50 values
- TESTED_ON: human NaV 1.7 (Homo sapiens)
- MEASUREMENT_DESCRIPTION: E-VIPR optical membrane potential assay with electrical stimulation
- COND: sodium channel inhibition; read-out: Binned Activity Data (IC50)

Sample COc1cc(OC)c(C(=O)N2CCC3(CC2)Oc2ccccc2-c2nn(C)cc23)cc1OC — what was its IC50?
2 to 5 µM

Sample Cn1ncc2c1-c1ccccc1OC21CCN(C(=O)c2cn(C)c3ccccc23)CC1 — what was its IC50?
≤ 2 µM

Sample COc1cc(C(=O)N2CCC3(CC2)Oc2ccccc2-c2c3cnn2C)ccc1C(C)(C)C — what was its IC50?
≤ 2 µM

Sample CCc1ccc(C(=O)N2CCC3(CC2)Oc2cc(C(=O)NC)ccc2-n2cccc23)cc1OC — what was its IC50?
≤ 2 µM

---

- TESTED_ON: human NaV 1.7 (Homo sapiens, UniProt Q15858)
- Sequence (Q15858 whole entry): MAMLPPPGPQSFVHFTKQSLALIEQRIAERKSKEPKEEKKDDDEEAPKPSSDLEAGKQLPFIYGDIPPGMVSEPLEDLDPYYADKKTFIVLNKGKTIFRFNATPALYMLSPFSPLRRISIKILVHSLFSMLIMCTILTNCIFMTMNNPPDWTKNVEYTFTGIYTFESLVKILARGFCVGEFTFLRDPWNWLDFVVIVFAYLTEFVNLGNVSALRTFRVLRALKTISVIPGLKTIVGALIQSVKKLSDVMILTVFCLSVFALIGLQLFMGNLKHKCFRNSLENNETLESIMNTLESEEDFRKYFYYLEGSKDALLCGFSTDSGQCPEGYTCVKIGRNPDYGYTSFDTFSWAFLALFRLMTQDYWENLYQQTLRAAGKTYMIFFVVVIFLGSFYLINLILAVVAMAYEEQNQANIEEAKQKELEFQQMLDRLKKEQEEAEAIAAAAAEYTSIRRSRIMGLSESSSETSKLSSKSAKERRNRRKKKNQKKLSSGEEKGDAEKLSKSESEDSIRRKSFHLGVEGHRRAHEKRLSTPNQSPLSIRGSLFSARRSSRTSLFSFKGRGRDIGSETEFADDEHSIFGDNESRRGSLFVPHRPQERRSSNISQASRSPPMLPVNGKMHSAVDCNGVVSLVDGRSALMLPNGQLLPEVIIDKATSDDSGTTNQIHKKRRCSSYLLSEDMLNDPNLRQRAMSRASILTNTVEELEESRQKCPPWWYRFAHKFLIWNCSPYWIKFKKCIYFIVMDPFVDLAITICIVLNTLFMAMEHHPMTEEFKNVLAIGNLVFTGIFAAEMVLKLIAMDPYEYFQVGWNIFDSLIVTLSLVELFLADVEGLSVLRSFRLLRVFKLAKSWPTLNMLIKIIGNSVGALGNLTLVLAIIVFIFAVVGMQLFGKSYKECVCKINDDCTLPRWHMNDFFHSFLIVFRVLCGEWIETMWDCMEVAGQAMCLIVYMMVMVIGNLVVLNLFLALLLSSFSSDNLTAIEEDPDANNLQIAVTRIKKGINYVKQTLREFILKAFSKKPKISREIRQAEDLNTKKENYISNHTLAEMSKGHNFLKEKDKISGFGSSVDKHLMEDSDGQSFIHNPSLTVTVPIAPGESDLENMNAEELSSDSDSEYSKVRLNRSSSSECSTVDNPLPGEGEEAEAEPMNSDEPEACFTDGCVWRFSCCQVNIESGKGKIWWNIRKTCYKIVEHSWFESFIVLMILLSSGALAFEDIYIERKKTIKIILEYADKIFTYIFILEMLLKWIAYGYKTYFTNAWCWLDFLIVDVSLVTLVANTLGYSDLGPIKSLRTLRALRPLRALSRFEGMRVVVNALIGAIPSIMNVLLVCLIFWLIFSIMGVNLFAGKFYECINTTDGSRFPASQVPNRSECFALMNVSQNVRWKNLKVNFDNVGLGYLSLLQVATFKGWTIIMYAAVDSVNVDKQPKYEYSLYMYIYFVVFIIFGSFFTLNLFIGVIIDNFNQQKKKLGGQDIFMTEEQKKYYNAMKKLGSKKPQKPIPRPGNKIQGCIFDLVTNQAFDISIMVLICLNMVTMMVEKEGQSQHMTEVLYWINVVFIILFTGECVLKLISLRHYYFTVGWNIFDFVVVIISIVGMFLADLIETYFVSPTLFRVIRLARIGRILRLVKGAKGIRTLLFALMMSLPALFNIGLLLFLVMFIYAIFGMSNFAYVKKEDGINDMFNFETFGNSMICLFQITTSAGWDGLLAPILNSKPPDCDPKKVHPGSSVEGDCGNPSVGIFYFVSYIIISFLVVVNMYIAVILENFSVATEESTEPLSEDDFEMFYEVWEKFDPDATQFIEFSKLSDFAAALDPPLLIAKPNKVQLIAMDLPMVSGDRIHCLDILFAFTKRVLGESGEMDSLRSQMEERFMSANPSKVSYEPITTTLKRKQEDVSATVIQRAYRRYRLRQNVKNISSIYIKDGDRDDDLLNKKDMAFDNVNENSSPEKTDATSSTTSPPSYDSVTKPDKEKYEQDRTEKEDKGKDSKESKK
- MEASUREMENT_DESCRIPTION: E-VIPR optical membrane potential assay with electrical stimulation
- COND: sodium channel inhibition; read-out: Binned Activity Data (IC50)
pIC50: −log10 of the molar value.
MEASURE: pIC50

Reference set (2 entries):
{"SMILES_TEXT": "N#Cc1ccc2n1-c1ccccc1OC21CCN(C(=O)c2ccc(OC(F)F)cc2)CC1", "TESTED_ON": "human NaV 1.7 (Homo sapiens, UniProt Q15858)", "pIC50": "< 5.30"}
{"SMILES_TEXT": "O=C(c1ccc(O[C@H]2CCOC2)c(C(F)(F)F)c1)N1CCC2(CC1)Oc1ccccc1-n1cccc12", "TESTED_ON": "human NaV 1.7 (Homo sapiens, UniProt Q15858)", "pIC50": "≥ 5.70"}

Sample CC(C)Oc1ccc(C(=O)N2CCC3(CC2)Oc2ccccc2-c2nn(C)cc23)c(F)c1 — what was its pIC50?
≥ 5.70

Sample CN(C)CCOc1ccc(C(=O)N2CCC3(CC2)Oc2cc(F)ccc2-n2cccc23)cc1C(F)(F)F — what was its pIC50?
< 5.30

Sample CC(C)Oc1ccc(C(=O)N2CCC3(CC2)Oc2ccccc2-n2cccc23)cc1C(N)=O — what was its pIC50?
≥ 5.70

Sample O=C(c1ccc(S(=O)(=O)CCO)cc1)N1CCC2(CC1)Oc1ccccc1-n1c(C(F)(F)F)ccc12 — what was its pIC50?
< 5.30

Sample Cn1cc2c(n1)-c1ccccc1OC21CCN(C(=O)c2ccc(OC(F)F)cc2)CC1 — what was its pIC50?
≥ 5.70

Sample Cn1ncc2c1-c1ccc(Cl)cc1OC21CCN(C(=O)c2ccccc2OC(F)F)CC1 — what was its pIC50?
≥ 5.70

---

- TESTED_ON: human NaV 1.7 (Homo sapiens, UniProt Q15858)
- MEASUREMENT_DESCRIPTION: E-VIPR optical membrane potential assay with electrical stimulation
- Format: cell-based
- COND: sodium channel inhibition; read-out: Binned Activity Data (IC50)
- Excerpt: Assays for Detecting and Measuring NaV Inhibition Properties of Compound E-VIPR Optical Membrane Potential Assay Method with Electrical Stimulation Sodium channels are voltage-dependent proteins that can be activated by inducing membrane voltage changes by applying electric fields. The electrical stimulation instrument and methods of use are described in Ion Channel Assay Methods PCT/US01/21652, herein incorporated by reference and are referred to as E-VIPR. […] 7) Read Plate on E-VIPR. […]
MEASURE: IC50

{"SMILES_TEXT": "COc1cc(C(=O)N2CCC3(CC2)Oc2cc(Cl)ccc2-n2cccc23)ccc1C(C)(C)CO", "IC50": "≤ 2000 nM"}
{"SMILES_TEXT": "Cn1ncc2c1-c1ccccc1OC21CCN(C(=O)c2cccc3nccnc23)CC1", "IC50": "≤ 2000 nM"}
{"SMILES_TEXT": "Cn1ncc2c1-c1ccccc1OC21CCN(C(=O)c2csc(-c3ccccc3)n2)CC1", "IC50": "> 5000 nM"}
{"SMILES_TEXT": "Cc1cc(C(=O)N2CCC3(CC2)Oc2ccccc2-c2nn(C)cc23)ccc1OC(C)C", "IC50": "≤ 2000 nM"}
{"SMILES_TEXT": "Cn1ncc2c1-c1ccccc1OC21CCN(C(=O)c2ccc(C3(O)COC3)cc2)CC1", "IC50": "2000 to 5000 nM"}

Sample CC(C)Oc1ccc(C(=O)N2CCC3(CC2)Oc2cc(C#N)ccc2-n2cccc23)cc1 — what was its IC50?
≤ 2000 nM

Sample CC(C)(C)c1ccc(C(=O)N2CCC3(CC2)Oc2ccccc2-n2cccc23)cc1C#N — what was its IC50?
≤ 2000 nM

Sample COc1cc(C(=O)N2CCC3(CC2)Oc2ccccc2-n2cccc23)ccc1OC[C@@H](C)OC — what was its IC50?
≤ 2000 nM

Ref: patent US9365588B2
